Data provenance: PubChem BioAssay (NCI)

- System: OVCAR-8 ovarian
- Measurement notes: NCI tumour cell line growth inhibition, 48 h; in the data active = GI50 below about 0.43 µM; inactive = the rest
# valid calls are active, inactive; nothing else

Examples with answers:
{"columns": ["Compound", "Group label"],
 "data": [
  ["O=C1c2ccccc2C(=O)c2c1cc1c(c2[N+](=O)[O-])OCO1", "inactive"],
  ["C=CCN(CC=C)C(=O)[C@H](CC)[C@@H]1CC[C@@H](C)[C@@H]([C@H](C)[C@@H](O)[C@@H](C)C(=O)[C@H](CC)C2O[C@]3(C=C[C@@H](O)[C@]4(CC[C@@](C)([C@H]5CC[C@](O)(CC)[C@H](C)O5)O4)O3)[C@H](C)C[C@@H]2C)O1 (stereo partly drawn)", "inactive"],
  ["Cc1ccc(-n2c(-c3cc4c([nH]c5ccccc54)c(-c4cccc(O)c4)n3)n[nH]c2=S)cc1", "inactive"],
  ["COc1ccc2nc3cc(Cl)ccc3c(N3CCN(c4ccnc(N5CCN(C)CC5)n4)CC3)c2c1", "inactive"],
  ["CC1CCC2C(CN(CC3=C(C(F)(F)F)OC4OC5(C)CCC6C(C)CCC3C46OO5)CC3=C(C(F)(F)F)OC4OC5(C)CCC6C(C)CCC3C46OO5)=C(C(F)(F)F)OC3OC4(C)CCC1C32OO4 (stereo not drawn)", "inactive"]
]}

**Query** // outcome(item) with item = COC1=C(OC)[C@]2(OC)c3c(O)c(OC)c4c(c3O[C@@]23O[C@@H](c2ccccc2)CC=C3C1=O)[C@@H](OC)C[C@H](c1ccccc1)O4
**Result** inactive

**Query** // outcome(item) with item = Nc1nc(-c2ccc(Cl)cc2)nc2c1sc(=S)n2-c1ccccc1
**Result** inactive

**Query** // outcome(item) with item = C/C(=N\NC(=S)N1CCN(c2ccccn2)CC1)c1ncccn1
**Result** active

**Query** // outcome(item) with item = C[C@H]1CN(C2COC2)CCN1c1ccc(Nc2cc(-c3ccnc(N4CCn5c(cc6c5CC(C)(C)C6)C4=O)c3CO)cn(C)c2=O)nc1
**Result** inactive

**Query** // outcome(item) with item = COc1ccc(-c2[nH]c3ccccc3c2/C=C(\C#N)S(=O)(=O)c2ccccc2)cc1
**Result** inactive
